endpoint.name: melting point

compound | experimental.result
CC[C@H](C)[C@H](NC(C)=O)C(=O)N[C@H](C(=O)N[C@@H](CC1CCCCC1)[C@@H](O)[C@@H](O)CC(C)C)[C@@H](C)CC | 247 to 248 °C
CCOC(=O)c1cc(Cl)c2[nH]ncc2n1 | 276 to 279 °C
NC(=S)NN=Cc1c2ccccc2c(C=NNC(N)=S)c2ccccc12 | 275 to 277 °C
O=C1NC(c2ccccc2)C(C(=O)NCCO[N+](=O)[O-])O1 (centres undefined) | 122 to 124 °C
C[C@@H](CN1C(=O)c2ccccc2C1=O)CC(F)(F)F | 45 to 47 °C
Cn1nc(C(F)(F)F)cc1N | 100 to 101 °C

Problem: Quick one: give measured melting point for COc1ccccc1N1CCN(CC2CCc3ccccc3C2O)CC1 (centres undefined)
Result: 110 to 113 °C

Problem: Tell me melting point reported for CCOC(=O)c1cn2c(ccc3c(Cl)cccc32)n1
Result: 193 to 194 °C

Problem: State its melting point: Fc1ccc(-c2cc(Cn3cnc4c(Cl)nc5ccccc5c43)on2)cc1
Result: 219 to 220 °C

Values were extracted from a melting point compilation (Tetko et al.; mined from patent text by program, amines drawn as free bases though some values may be those of a salt).
